Kindly state Change in heart rate after treatment, 180' for each of the entries shown.
Tested on: normotensive rats
Assay: Blood pressure and heart rate in the conscious normotensive rat (NR)
Assay type: in vivo
Conditions: 5 mg/kg os, 180'

Summary: CN1C[C@H](CC(C#N)C(N)=O)C[C@@H]2c3cccc4[nH]cc(c34)C[C@H]21 (stereo partly drawn) [355/1057] , normotensive rats, Change in heart rate after treatment, 180' = -22 b/min

Case NNc1nncc2ccccc12 [Hydralazine, hydralazine, reference compound] , normotensive rats, Change in heart rate after treatment, 180' recorded as +9 b/min

normotensive rats assay, molecule CN1C[C@H](CC(C#N)C(=O)NCc2ccccc2)C[C@@H]2c3cccc4[nH]cc(c34)C[C@H]21 (stereo partly drawn) [Example 1131] , recorded Change in heart rate after treatment, 180' = -20 b/min

normotensive rats data for CN1C[C@H](CC(C#N)C(=O)N2CCCC2)C[C@@H]2c3cccc4[nH]cc(c34)C[C@H]21 (stereo partly drawn) [Example 1133] ; its Change in heart rate after treatment, 180': -40 b/min

Result for CN1C[C@H](CC(C#N)C(N)=O)C[C@@H]2c3cccc4[nH]c(Br)c(c34)C[C@H]21 (stereo partly drawn) [Example 1139] , tested on normotensive rats, Change in heart rate after treatment, 180': -5 b/min

So the reported Change in heart rate after treatment, 180' for CCNC(=O)C(C#N)C[C@@H]1C[C@@H]2c3cccc4[nH]cc(c34)C[C@H]2N(C)C1 (stereo partly drawn) [Example 1138] , on normotensive rats, turned out to be -15 b/min
